Target: ScLsb3
Assay: SPOT peptide array binding signal intensity (averaged, normalized) (arbitrary units (background-subtracted, floor 0; scale differs between SH3 domains)); higher = stronger binding of the SH3 domain to the peptide
For each of the binders below, state its SPOT peptide array binding signal intensity.
Numbers only.

Worked cases, answers included:
NRLRKRLNLPSEISI 57
LFMKGTPEFPKSGFS 197
AIPPPVPNRPGGTTN 1950
QFDLKMPSKPIHNLK 74
TIRRRAPLSLLESHT 272

In the following, a different binder is considered.
SPOT peptide array binding signal intensity for SGVRLPAPPPPPRRG ?
2990
